Molecular target: FXR (Homo sapiens)
Sequence (Q96RI1 1-486): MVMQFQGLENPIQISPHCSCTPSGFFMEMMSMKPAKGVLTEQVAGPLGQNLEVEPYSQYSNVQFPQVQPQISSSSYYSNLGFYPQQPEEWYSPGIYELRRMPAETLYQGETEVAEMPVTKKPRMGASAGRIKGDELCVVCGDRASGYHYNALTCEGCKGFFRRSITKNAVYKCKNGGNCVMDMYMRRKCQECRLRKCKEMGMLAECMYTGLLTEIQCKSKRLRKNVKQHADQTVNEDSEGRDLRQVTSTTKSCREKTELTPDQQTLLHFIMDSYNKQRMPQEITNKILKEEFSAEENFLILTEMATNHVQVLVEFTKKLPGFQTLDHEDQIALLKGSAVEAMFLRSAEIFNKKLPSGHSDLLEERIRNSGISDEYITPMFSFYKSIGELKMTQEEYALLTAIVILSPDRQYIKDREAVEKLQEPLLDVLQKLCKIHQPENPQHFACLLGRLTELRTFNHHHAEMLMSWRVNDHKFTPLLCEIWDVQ
Experiment: FXR Transactivation Assay (pBIND-FXR / pGL4.35 luciferase reporter in HEK293T)
Details: HEK293T cells
pEC50: −log10 of the molar value.
ENDPOINT: pEC50

Sample records with pEC50:
CC(C)c1onc(-c2c(Cl)cccc2Cl)c1COc1ccc(C2(C)CC2c2ncc(C(=O)O)s2)c(Cl)c1 (stereo not shown)    7.00 to 8.00
COc1cc(C(=O)O)cc2sc(C3(C)CC3c3ccc(OCc4c(-c5c(Cl)cccc5Cl)noc4C4CC4)cc3Cl)nc12 (stereo not shown)    6.40 to 7.00
CC1(c2ccc(OCc3c(-c4c(Cl)cccc4Cl)noc3C3CC3)cc2Cl)CC1c1cc(C(=O)O)ccn1 (stereo not shown)    6.40 to 7.00
CC(C)c1cnn(-c2c(Cl)cccc2Cl)c1COc1ccc(C2CC2(C)c2cncc(C(=O)O)c2)c(Cl)c1 (stereo not shown)    7.00 to 8.00
CC1(c2cncc(C(=O)O)c2)CC1c1ccc(OCc2c(-c3c(Cl)cccc3Cl)noc2C2CC2)cc1Cl (single isomer, unassigned) [IV-06-2]    7.00 to 8.00
CC(C)c1onc(-c2c(Cl)cccc2Cl)c1COc1ccc(C2(C)CC2c2ccc(C(=O)O)cc2)c(Cl)c1 (stereo not shown)    6.40 to 7.00

Now turn to the next compound.
Input line: pEC50 lookup needed for CC1(c2cncc(C(=O)O)c2)CC1c1ccc(OCc2c(-c3c(Cl)cccc3Cl)noc2C2CC2)cc1Cl (single isomer, unassigned) [IV-06-1] , thanks.
Output line: 6.40 to 7.00

----------
Target: FXR-LBD (Homo sapiens)
Construct: Add 5 μl of 4×FXR-LBD to 384 well assay plates
Sequence (Q96RI1 262-486 limits assumed): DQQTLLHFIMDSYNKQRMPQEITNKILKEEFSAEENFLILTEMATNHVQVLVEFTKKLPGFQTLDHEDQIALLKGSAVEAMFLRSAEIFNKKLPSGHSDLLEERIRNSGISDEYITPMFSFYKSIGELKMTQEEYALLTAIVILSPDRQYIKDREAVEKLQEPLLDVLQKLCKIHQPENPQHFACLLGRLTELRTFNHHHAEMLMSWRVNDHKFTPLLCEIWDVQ
Assay: FXR Coactivator Assay (LanthaScreen TR-FRET)
ENDPOINT: EC50

These recorded examples may help you get a feel for the data.
CC(C)c1onc(-c2c(Cl)cccc2Cl)c1COc1ccc(C2(C#N)CC2c2cccc(C(=O)O)c2)c(Cl)c1 (stereo not shown)    10 to 100 nM
CC(C)c1onc(-c2c(Cl)cccc2Cl)c1COc1ccc(C2CC2(C)c2ccc(C(=O)O)cc2)c(Cl)c1 (stereo not shown)    101 to 400 nM

Input line: So what EC50 did CC1(c2ncc(C(=O)O)s2)CC1c1ccc(OCc2c(-c3c(Cl)cccc3Cl)noc2C2CC2)cc1Cl (stereo not shown) get with FXR-LBD (Homo sapiens)?
Output line: 101 to 400 nM

Input line: Find EC50 (FXR-LBD (Homo sapiens)) for the entry Cc1cc(C(=O)O)cc2sc(C3(C)CC3c3ccc(OCc4c(-c5c(Cl)cccc5Cl)noc4C4CC4)cc3Cl)nc12 (stereo not shown)
Output line: 401 to 5000 nM
